Quick reference: IC50 of the listed items.
System: CEM-SS
Test: Compound was evaluated for the cytoprotection of CEM-SS cells by XTT cytoprotection assay through the NCI AIDS Screen
Assay type: functional, cell-based
Conditions: Homo sapiens

Entry smiles | IC50
CC(=O)Oc1ccc(/C=C/C(=O)O[C@@H](C)[C@H](C)OC(=O)/C=C/c2ccc(OC(C)=O)c(OC(C)=O)c2)cc1OC(C)=O | 5.71 µM

Prompt: Fill in: IC50 of `CC(=O)Oc1ccc(/C=C/C(=O)O[C@H](C(=O)O)[C@H](OC(=O)/C=C/c2ccc(OC(C)=O)c(OC(C)=O)c2)C(=O)O)cc1OC(C)=O` is ___
Completion: 23 µM

Prompt: Fill in: IC50 of `O=C(/C=C/c1ccc(O)c(O)c1)NCCOC(=O)/C=C/c1ccc(O)c(O)c1` is ___
Completion: 9.22 µM

Prompt: Fill in: IC50 of `CC(=O)Oc1ccc(/C=C/C(=O)O[C@H]2CCCC[C@@H]2OC(=O)/C=C/c2ccc(OC(C)=O)c(OC(C)=O)c2)cc1OC(C)=O` is ___
Completion: 5.76 µM

Prompt: Fill in: IC50 of `O=C(/C=C/c1ccc(O)c(O)c1)O[C@H]1CCCC[C@@H]1OC(=O)/C=C/c1ccc(O)c(O)c1` is ___
Completion: 5.67 µM

Prompt: Fill in: IC50 of `CC(=O)Oc1ccc(/C=C/C(=O)OCCOC(=O)/C=C/c2ccc(OC(C)=O)c(OC(C)=O)c2)cc1OC(C)=O` is ___
Completion: 6.7 µM

Prompt: Fill in: IC50 of `CC(=O)Oc1ccc(/C=C/C(=O)O[C@@H](C(=O)O)[C@@H](OC(=O)/C=C/c2ccc(OC(C)=O)c(OC(C)=O)c2)C(=O)O)cc1OC(C)=O` is ___
Completion: 50 µM

Prompt: Fill in: IC50 of `C[C@H](OC(=O)/C=C/c1ccc(O)c(O)c1)[C@H](C)OC(=O)/C=C/c1ccc(O)c(O)c1` is ___
Completion: 3.64 µM

----------
Test system: CEM-SS
Assay: Concentration of compound required to protect 50% of CEM-SS cells against retroviral cytopathic effects of HIV-RF on 6th day at dil 1:50
Type: functional, cell-based
Conditions: Homo sapiens
Result type: EC50

Prompt: # get_value(readout= EC50, system= CEM-SS) for `CC(=O)Oc1ccc(/C=C/C(=O)O[C@H](C(=O)O)[C@H](OC(=O)/C=C/c2ccc(OC(C)=O)c(OC(C)=O)c2)C(=O)O)cc1OC(C)=O`
Completion: > 50 µM

----------
Biological target: Human immunodeficiency virus type 1 integrase (Human immunodeficiency virus 1, UniProt Q7ZJM1)
Sequence (Q7ZJM1 whole entry): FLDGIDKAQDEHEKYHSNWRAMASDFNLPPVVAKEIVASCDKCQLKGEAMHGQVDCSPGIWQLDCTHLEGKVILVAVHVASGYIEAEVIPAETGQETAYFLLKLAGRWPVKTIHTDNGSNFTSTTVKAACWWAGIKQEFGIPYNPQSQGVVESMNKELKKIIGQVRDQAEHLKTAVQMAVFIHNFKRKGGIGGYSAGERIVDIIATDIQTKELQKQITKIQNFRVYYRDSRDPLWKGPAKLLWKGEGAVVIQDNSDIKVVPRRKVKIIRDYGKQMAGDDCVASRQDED
Flag rule - IC50 less than 3 µM flags Fulfilled; the remaining entries get Not fulfilled.

Illustrative cases are given below, each with its answer.
Compound | Cat
O=C(/C=C/c1ccc(O)c(O)c1)NCCOC(=O)/C=C/c1ccc(O)c(O)c1 | Not fulfilled
O=C(/C=C/c1ccc(O)c(O)c1)O[C@H]1CCCC[C@@H]1OC(=O)/C=C/c1ccc(O)c(O)c1 | Not fulfilled
O=C(/C=C/c1ccc(O)c(O)c1)OCCCOC(=O)/C=C/c1ccc(O)c(O)c1 | Not fulfilled
CC(=O)Oc1ccc(/C=C/C(=O)OCC(OC(=O)/C=C/c2ccc(OC(C)=O)c(OC(C)=O)c2)C(=O)O)cc1OC(C)=O (stereo not given) | Fulfilled
C[C@H](OC(=O)/C=C/c1ccc(O)c(O)c1)[C@H](C)OC(=O)/C=C/c1ccc(O)c(O)c1 | Not fulfilled

Prompt: Just wondering, is IC50 of `CC(=O)Oc1ccc(/C=C/C(=O)OCCCOC(=O)/C=C/c2ccc(OC(C)=O)c(OC(C)=O)c2)cc1OC(C)=O` below 3 µM?
Completion: Not fulfilled

Prompt: Just wondering, is IC50 of O=C(/C=C/c1ccc(O)c(O)c1)NC(COC(=O)/C=C/c1ccc(O)c(O)c1)C(=O)O (stereo not given) below 3 µM?
Completion: Not fulfilled

Prompt: Just wondering, is IC50 of COC(=O)C(COC(=O)/C=C/c1ccc(OC(C)=O)c(OC(C)=O)c1)NC(C)=O (stereo not given) below 3 µM?
Completion: Not fulfilled

----------
Molecular target: Human immunodeficiency virus type 1 integrase (Human immunodeficiency virus 1)
Quick reference: pIC50 of the listed items.
Scale note: pIC50 = -log10(concentration in M).

Compound | Study target | pIC50
O=C(/C=C/c1ccc(O)c(O)c1)OCCOC(=O)/C=C/c1ccc(O)c(O)c1 | Human immunodeficiency virus type 1 integrase (Human immunodeficiency virus 1) | 6.40
O=C(/C=C/c1ccc(O)c(O)c1)NCCOC(=O)/C=C/c1ccc(O)c(O)c1 | Human immunodeficiency virus type 1 integrase (Human immunodeficiency virus 1) | 5.19
O=C(/C=C/c1ccc(O)c(O)c1)OCCCOC(=O)/C=C/c1ccc(O)c(O)c1 | Human immunodeficiency virus type 1 integrase (Human immunodeficiency virus 1) | 5.12

Prompt: # get_value(readout= pIC50, system= Human immunodeficiency virus type 1 integrase (Human immunodeficiency virus 1)) for COC(=O)C(COC(=O)/C=C/c1ccc(OC(C)=O)c(OC(C)=O)c1)NC(=O)/C=C/c1ccc(OC(C)=O)c(OC(C)=O)c1 (stereo not given)
Completion: 5.49

Prompt: # get_value(readout= pIC50, system= Human immunodeficiency virus type 1 integrase (Human immunodeficiency virus 1)) for `CC(=O)Oc1ccc(/C=C/C(=O)O[C@@H](C(=O)O)[C@@H](OC(=O)/C=C/c2ccc(OC(C)=O)c(OC(C)=O)c2)C(=O)O)cc1OC(C)=O`
Completion: 5.21

----------
Test system: MT4
Experiment: Concentration of compound required to protect 50% of MT-4 cells against retroviral cytopathic effects of HIV-2 (ROD)
Format: functional, cell-based
Conditions: Homo sapiens
Result type: EC50 (µM)
Answer in µM, number only, no unit symbol.

Prompt: Fill in: EC50 of `CC(=O)Oc1ccc(/C=C/C(=O)O[C@H](C(=O)O)[C@H](OC(=O)/C=C/c2ccc(OC(C)=O)c(OC(C)=O)c2)C(=O)O)cc1OC(C)=O` is ___
Completion: 5.1

----------
Test system: CEM-SS
Experiment: Concentration of compound required to protect 50% of CEM-SS cells against retroviral cytopathic effects of HIV-RF on 3rd day at dil 1:100
Assay type: functional, cell-based
Conditions: Homo sapiens
Result type: EC50

Prompt: # get_value(readout= EC50, system= CEM-SS) for `CC(=O)Oc1ccc(/C=C/C(=O)O[C@H](C(=O)O)[C@H](OC(=O)/C=C/c2ccc(OC(C)=O)c(OC(C)=O)c2)C(=O)O)cc1OC(C)=O`
Completion: > 50 µM

----------
Human immunodeficiency virus type 1 integrase (Human immunodeficiency virus 1) data, read-out IC50
Answer in µM, number only, no unit symbol.

Answered examples (4):
Compound | Unit of measurement | IC50
COC(=O)C(COC(=O)/C=C/c1ccc(OC(C)=O)c(OC(C)=O)c1)NC(=O)/C=C/c1ccc(OC(C)=O)c(OC(C)=O)c1 (configuration not stated) | µM | 2.5
CC(=O)Oc1ccc(/C=C/C(=O)O[C@@H](C(=O)O)[C@@H](OC(=O)/C=C/c2ccc(OC(C)=O)c(OC(C)=O)c2)C(=O)O)cc1OC(C)=O | µM | 9.8
O=C(/C=C/c1ccc(O)c(O)c1)OCC(OC(=O)/C=C/c1ccc(O)c(O)c1)C(=O)O (configuration not stated) | µM | 4.2
CC(=O)NC(COC(=O)/C=C/c1ccc(O)c(O)c1)C(=O)O (configuration not stated) | µM | 333

Prompt: Fill in: IC50 of `COC(=O)[C@@H](CNC(=O)/C=C/c1ccc(OC(C)=O)c(OC(C)=O)c1)NC(=O)/C=C/c1ccc(OC(C)=O)c(OC(C)=O)c1` is ___
Completion: 10.9

Prompt: Fill in: IC50 of COC(=O)C(COC(=O)/C=C/c1ccc(OC(C)=O)c(OC(C)=O)c1)OC(=O)/C=C/c1ccc(OC(C)=O)c(OC(C)=O)c1 (configuration not stated) is ___
Completion: 10.1

Prompt: Fill in: IC50 of `COC(=O)[C@@H](COC(=O)/C=C/c1ccc(OC(C)=O)c(OC(C)=O)c1)NC(=O)/C=C/c1ccc(OC(C)=O)c(OC(C)=O)c1` is ___
Completion: 2.8

----------
Quick reference: log10 of IC50 of the listed items.
Target: Human immunodeficiency virus type 1 integrase (Human immunodeficiency virus 1)
Response schema: value (number) is log10 of IC50 in units of µM.

Answered examples (5):
Molecule | log10 of IC50
COC(=O)[C@@H](CNC(=O)/C=C/c1ccc(OC(C)=O)c(OC(C)=O)c1)NC(=O)/C=C/c1ccc(OC(C)=O)c(OC(C)=O)c1 | 1.00
CC(=O)Oc1ccc(/C=C/C(=O)OCC(OC(=O)/C=C/c2ccc(OC(C)=O)c(OC(C)=O)c2)C(=O)O)cc1OC(C)=O (stereo not given) | 0.45
O=C(/C=C/c1ccc(O)c(O)c1)OCC(OC(=O)/C=C/c1ccc(O)c(O)c1)C(=O)O (stereo not given) | 0.23
O=C(/C=C/c1ccc(O)c(O)c1)O[C@H]1CCCC[C@@H]1OC(=O)/C=C/c1ccc(O)c(O)c1 | 0.88
O=C(/C=C/c1ccc(O)c(O)c1)NC(COC(=O)/C=C/c1ccc(O)c(O)c1)C(=O)O (stereo not given) | 0.23

Prompt: # get_value(readout= log10 of IC50, system= Human immunodeficiency virus type 1 integrase (Human immunodeficiency virus 1)) for `COC(=O)[C@H](COC(=O)/C=C/c1ccc(OC(C)=O)c(OC(C)=O)c1)NC(=O)/C=C/c1ccc(OC(C)=O)c(OC(C)=O)c1`
Completion: 0.58

Prompt: # get_value(readout= log10 of IC50, system= Human immunodeficiency virus type 1 integrase (Human immunodeficiency virus 1)) for CC(=O)NC(COC(=O)/C=C/c1ccc(O)c(O)c1)C(=O)O (stereo not given)
Completion: 2.05

Prompt: # get_value(readout= log10 of IC50, system= Human immunodeficiency virus type 1 integrase (Human immunodeficiency virus 1)) for `C[C@H](OC(=O)/C=C/c1ccc(O)c(O)c1)[C@H](C)OC(=O)/C=C/c1ccc(O)c(O)c1`
Completion: 0.89

Prompt: # get_value(readout= log10 of IC50, system= Human immunodeficiency virus type 1 integrase (Human immunodeficiency virus 1)) for `COC(=O)[C@@H](COC(=O)/C=C/c1ccc(OC(C)=O)c(OC(C)=O)c1)NC(=O)/C=C/c1ccc(OC(C)=O)c(OC(C)=O)c1`
Completion: 0.51

Prompt: # get_value(readout= log10 of IC50, system= Human immunodeficiency virus type 1 integrase (Human immunodeficiency virus 1)) for COC(=O)C(COC(=O)/C=C/c1ccc(OC(C)=O)c(OC(C)=O)c1)OC(=O)/C=C/c1ccc(OC(C)=O)c(OC(C)=O)c1 (stereo not given)
Completion: 1.00

Prompt: # get_value(readout= log10 of IC50, system= Human immunodeficiency virus type 1 integrase (Human immunodeficiency virus 1)) for CC(=O)Oc1ccc(/C=C/C(=O)NCC(NC(=O)/C=C/c2ccc(OC(C)=O)c(OC(C)=O)c2)C(=O)O)cc1OC(C)=O (stereo not given)
Completion: 0.61

Prompt: # get_value(readout= log10 of IC50, system= Human immunodeficiency virus type 1 integrase (Human immunodeficiency virus 1)) for `CC(=O)Oc1ccc(/C=C/C(=O)NCCOC(=O)/C=C/c2ccc(OC(C)=O)c(OC(C)=O)c2)cc1OC(C)=O`
Completion: 2.00

Prompt: # get_value(readout= log10 of IC50, system= Human immunodeficiency virus type 1 integrase (Human immunodeficiency virus 1)) for `CC(=O)Oc1ccc(/C=C/C(=O)O[C@H](C(=O)O)[C@H](OC(=O)/C=C/c2ccc(OC(C)=O)c(OC(C)=O)c2)C(=O)O)cc1OC(C)=O`
Completion: 0.66
